Sourced from patent US20260167714A1

# IC50 annotations
biological target: T1, human ILT4 expressed on cells (human, UniProt Q8N423 22-597); assay: flow cytometry, blockade of PE-HLA-G tetramer (5 µg/ml) binding to CHO-S/ILT4 cells, experiment 2
T1 construct: whole, on cells; also called CHO-S/ILT4 cells; ILT4-CHO cells
T1 sequence (Q8N423 22-597): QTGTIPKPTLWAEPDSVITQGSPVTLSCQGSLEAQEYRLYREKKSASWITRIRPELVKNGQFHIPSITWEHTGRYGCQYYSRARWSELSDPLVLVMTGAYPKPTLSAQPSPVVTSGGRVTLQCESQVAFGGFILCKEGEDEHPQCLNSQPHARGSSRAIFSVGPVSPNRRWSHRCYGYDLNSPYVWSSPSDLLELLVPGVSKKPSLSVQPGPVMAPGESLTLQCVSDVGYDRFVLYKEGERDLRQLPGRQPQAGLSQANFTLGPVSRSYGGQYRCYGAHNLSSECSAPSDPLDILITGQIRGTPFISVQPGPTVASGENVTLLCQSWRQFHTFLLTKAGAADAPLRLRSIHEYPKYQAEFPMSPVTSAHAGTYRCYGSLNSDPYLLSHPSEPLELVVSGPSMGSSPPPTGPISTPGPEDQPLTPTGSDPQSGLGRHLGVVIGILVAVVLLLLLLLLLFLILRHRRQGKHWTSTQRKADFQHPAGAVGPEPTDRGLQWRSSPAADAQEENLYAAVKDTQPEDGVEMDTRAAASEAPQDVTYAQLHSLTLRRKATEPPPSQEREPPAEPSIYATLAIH
quantity_name: IC50

binder="J19h1 (antibody, V domains shown) VH: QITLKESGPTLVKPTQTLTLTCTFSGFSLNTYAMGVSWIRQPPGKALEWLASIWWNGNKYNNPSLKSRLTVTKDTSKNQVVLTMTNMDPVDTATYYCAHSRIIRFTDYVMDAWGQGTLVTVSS VL: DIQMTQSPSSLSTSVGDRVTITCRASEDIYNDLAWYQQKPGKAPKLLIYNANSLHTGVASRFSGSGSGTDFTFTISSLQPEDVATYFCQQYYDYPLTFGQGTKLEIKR" measured="0.216 µg/mL"
binder="L156S3 (antibody, IgG2a, V domains shown, also called mouse anti-human ILT4 antibody L156S3) VH: QVQLKQSGAELVRPGASVKLSCRASGYTFTDYYMNWVKQRPGQGLEWIARIYPGVYRTHYNEKFKDKATLTAEKSSSTAYMELSSLTSEDSAVYFCARSGYYGGTYEEDAMDYWGQGTSVTVSS VL: DIQMTQSPASLSVSVGETVTITCRASENIYSNLAWYQQKQGKSPQLLVYAATSLADGVPSRFRGSGSGTQYSLKISSLQSEDFGNYYCQNFWDTPYTFGGGTKLEIK" measured="0.113 µg/mL"
binder="1E1 (antibody, V domains shown) VH: QVQLQQWGAGLLKPSETLSLTCAVYGGSFSGYYWSWIRQPPGKGLEWIGEINHSGSTNYNPSLKSRVTISVDTSKNQFSLKLSSVTAADTAVYYCARLPTRWVTTRYFDLWGRGTLVTVSS VL: QSVLTQPPSVSGAPGQRVTISCTGSSSNIGAGYDVHWYQQLPGTAPKLLIYGNSNRPSGVPDRFSVSKSGASASLAITGLQAEDEADYYCQSFDNSLSAYVFGGGTQLTVL" measured="0.075 µg/mL"
binder="L41S5 (antibody, IgG2a, V domains shown, also called mouse anti-human ILT4 antibody L41S5) VH: QVQLQQSGAELVKPGASVKISCKASGYAFSSYWMNWVKQRPGKGLEWIGQIYPGHGDTNYNGKFKGKATLTADKSSSTAYMQLSSLTSEDSAVYFCAKEGSELGRLFAYWGQGTLVTVSA VL: QIVLTQSPALMSASPGEKVTMTCSASSSVSFMYWYQQKPRSSPKPWIYLTSNLASGVPARFSGSGSGTSYSLTISSMEAEDAATYYCQQWSSNPPTFGGGTKLEIK" measured="0.134 µg/mL"
binder="L45S4 (antibody, IgG2a, V domains shown, also called Murine 45; mouse anti-human ILT4 antibody L45S4) VH: EVQLQQSGPELVKPGASVKISCKASGYTFTDYYMNWVKQSHGKSLEWIGDINPNNGGTSYNQKFKGKATLTVDKSSSTAYMELRSLTSEDSAVYYCARGGAELTGTYWYFDVWGTGTTVTVSS VL: DIQMTQSPASLSISVGETVTITCRASENIYSNLAWYQQKQGKSPQVLVYGATNLADGVPSRFSGSGSGTQYSLKIKSLQSEDFGSYYCQHFWDSPFTFGSGTKLEIK" measured="0.044 µg/mL"
binder="L77S2 (antibody, IgG1, V domains shown, also called Murine 77; mouse anti-human ILT4 antibody L77S2) VH: DVQLQQSGPELVKPGNSVKISCKAAGYSFTGYSVNWVKERHGKSLEWIGRINPYNGDIFNNQKFKGKATLTVDKSSSTAHMELRSLTSEDSAVYYCARGTTVGGAWFAYWGQGTLVTVSA VL: VIVLTQSPASLAVSLGQRAAISCRASESVDSYGYSFLHWYQQKPGQPPKLLIYLASNLESGIPARFSGSGSGTDFTLTINPVEADDVATYYCQQSNEDLMYTFGGGTKLEIK" measured="0.103 µg/mL"
binder="L180S4 (antibody, IgG1, V domains shown, also called Murine 180; mouse anti-human ILT4 antibody L180S4) VH: EVHLQQSGPELVKPGASVKISCKASGYSFIGYFMNWMKQSHGKSLEWIGRINPYNGDIFYNQKFKGKATLTVDKSSTTAHMDLLSLTSEDFAVYYCARGITVAAGSFDVWGTGTTVTVSS VL: DIVLTQSPASLAVSLGQRATISCRASESVDNYGNTFMHWYQQKPGQPPKLLIYRASNLESGIPARFSGSGSKTDFTLTINPVEADDVATYYCQQSSDHPLTFGAGTKLELS" measured="0.095 µg/mL"
